The measurements presented in this section are drawn from patent US8026362B2.

- systemUnderTest: HIV-1 RT (Human immunodeficiency virus type 1 group M subtype B)
As shown below, each of these molecules has a reported log10 IC50 value.
A value of 2 here means IC50 of 100 in nM, since values are log10.

// solved cases for log10 IC50 follow
Cc1cn(Cc2ccc(Br)c(Oc3cc(Cl)cc(C#N)c3)c2F)c(=S)[nH]c1=O; 0.74
Cc1cn(Cc2ccc(Br)c(Oc3cc(Cl)cc(C#N)c3)c2F)c(=O)nc1N; 1.29
C[C@@H]1C(=O)NC(=O)N1Cc1ccc(Br)c(Oc2cc(Cl)cc(C#N)c2)c1F; 1.23
N#Cc1cc(Cl)cc(Oc2c(Br)ccc(CN3CC(=O)NC3=O)c2F)c1; 0.95
CCc1cn(Cc2ccc(Br)c(Oc3cc(Cl)cc(C#N)c3)c2F)c(=O)[nH]c1=O; 0.20

*Q* Request - read-out log10 IC50 | tested on HIV-1 RT (Human immunodeficiency virus type 1 group M subtype B) | molecule `CCc1ccc(Cn2cc(C)c(=O)[nH]c2=O)c(F)c1Oc1cc(Cl)cc(C#N)c1`
*A* 0.26

*Q* Request - read-out log10 IC50 | tested on HIV-1 RT (Human immunodeficiency virus type 1 group M subtype B) | molecule `Cn1cc(Cc2ccc(Br)c(Oc3cc(Cl)cc(C#N)c3)c2F)c(=O)[nH]c1=O`
*A* 0.77

*Q* Request - read-out log10 IC50 | tested on HIV-1 RT (Human immunodeficiency virus type 1 group M subtype B) | molecule `N#Cc1cc(Cl)cc(Oc2c(Br)ccc(Cn3cc(F)c(=O)[nH]c3=O)c2F)c1`
*A* 0.34

*Q* Request - read-out log10 IC50 | tested on HIV-1 RT (Human immunodeficiency virus type 1 group M subtype B) | molecule `Cc1cn(Cc2ccc(Br)c(Oc3cc(C#N)cc(C#N)c3)c2F)c(=O)[nH]c1=O`
*A* 0.63

*Q* Request - read-out log10 IC50 | tested on HIV-1 RT (Human immunodeficiency virus type 1 group M subtype B) | molecule `N#Cc1cc(C#N)cc(Oc2c(Br)ccc(Cn3cc(Cl)c(=O)[nH]c3=O)c2F)c1`
*A* 0.72

*Q* Request - read-out log10 IC50 | tested on HIV-1 RT (Human immunodeficiency virus type 1 group M subtype B) | molecule `N#Cc1cc(Cl)cc(Oc2c(Br)ccc(Cn3cc(C(F)(F)F)c(=O)[nH]c3=O)c2F)c1`
*A* 0.78

*Q* Request - read-out log10 IC50 | tested on HIV-1 RT (Human immunodeficiency virus type 1 group M subtype B) | molecule C=CCC1C(=O)NC(=O)N1Cc1ccc(Br)c(Oc2cc(Cl)cc(C#N)c2)c1F (stereo not drawn)
*A* 3.00
